B1: glmS ribozyme (parent)
chain: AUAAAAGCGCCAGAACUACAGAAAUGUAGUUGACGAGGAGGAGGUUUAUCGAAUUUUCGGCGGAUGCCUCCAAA

- Variants of: B1
- protocolDetails: KM; higher = weaker cofactor use; RNA array
- assayConditions: with glucosamine-6-phosphate
This listing pairs variants with measured KM.
Return type: number; implicit unit µM.

// known answers, use as guide
>  <mutationCode>
U65C C68U

>  <KM / µM>
558

$$$$
>  <mutationCode>
G13U U56A

>  <KM / µM>
1880

$$$$

*Q* Name the recorded KM of the variant listed here: A12U G43C
*A* 6950

*Q* Name the recorded KM of the variant listed here: A48U U54A
*A* 3130

*Q* Name the recorded KM of the variant listed here: A14C U46C
*A* 1090

*Q* Name the recorded KM of the variant listed here: A48U U65G
*A* 1390

*Q* Name the recorded KM of the variant listed here: U46C U47G
*A* 2600

*Q* Name the recorded KM of the variant listed here: A14U A53C
*A* 1970

*Q* Name the recorded KM of the variant listed here: U54A A64G
*A* 2310

*Q* Name the recorded KM of the variant listed here: A39G G40U U55C C71A
*A* 2200

Where these numbers come from: the supplement of paper PMC7125110
